- Test system: PC-3 prostate
- assay-info: NCI tumour cell line growth inhibition, 48 h

molecule	assayed-system	TGI
CSCCCCCCCCCCOc1ccc(C=C2C(=C(C#N)C#N)c3ccccc3C2=C(C#N)C#N)cc1	PC-3 prostate	31.4 µM
CC1OC(O)C(O)C(O)C1O (stereo not given)	PC-3 prostate	> 100 µM
CCOC(=O)CCC(NC(=O)OCc1ccccc1)C(=O)NC(CCC(=O)OCC)C(=O)NC(CCC(=O)OCC)C(=O)NC(CCC(=O)OCC)C(=O)NC(CCC(=O)OCC)C(=O)OCC (stereo not given)	PC-3 prostate	> 100 µM
CC(C)(C)C=C=C(C(C)(C)C)P(=O)(O)O	PC-3 prostate	> 100 µM
COC(=O)C1(Cc2cccc(Cl)c2)CCCCCCN1C(=O)c1ccccc1 (stereo not given)	PC-3 prostate	17.4 µM

Source listed as PubChem BioAssay (NCI).
